Field: pIC50. Provide a value for each of the molecules that follow.
test system: HepG2; test: Antiproliferative activity against human HepG2 cells after 48 hrs by MTT assay; format: functional, cell-based; conditions: HepG2, 48 h
pIC50: −log10 of the molar value.

Some solved cases for reference:
# Molecule, Measured target, Readout name, Value
rows = [
    ("N#CC1=C(N)Oc2c(N)cc3nc4ccccc4nc3c2C12C(=O)N(Cc1cnnn1-c1ccc(F)c(Cl)c1)c1ccccc12 (centres undefined)", "HepG2", "pIC50", "< 4.30"),
    ("CC(=O)Nc1ccc(-n2nncc2CN2C(=O)C3(C(C#N)=C(N)Oc4c3c3nc5ccccc5nc3c3ccccc43)c3ccccc32)cc1 (centres undefined)", "HepG2", "pIC50", "< 4.30"),
    ("N#CC1=C(N)Oc2c(N)cc3nc4ccccc4nc3c2C12C(=O)N(Cc1cnnn1-c1ccccc1Br)c1ccccc12 (centres undefined)", "HepG2", "pIC50", 4.42),
]

# evaluate next
Suppose we examine the molecule N#CC1=C(N)Oc2c(c3nc4ccccc4nc3c3ccccc23)C12C(=O)N(Cc1cnnn1-c1ccc(Cl)cc1)c1ccccc12 (centres undefined) ; what pIC50 value has been reported?
< 4.30
